# MEASURED_TARGET: PGR (gene 5241) (UniProt P06401)
# Sequence (P06401 whole entry, looked up): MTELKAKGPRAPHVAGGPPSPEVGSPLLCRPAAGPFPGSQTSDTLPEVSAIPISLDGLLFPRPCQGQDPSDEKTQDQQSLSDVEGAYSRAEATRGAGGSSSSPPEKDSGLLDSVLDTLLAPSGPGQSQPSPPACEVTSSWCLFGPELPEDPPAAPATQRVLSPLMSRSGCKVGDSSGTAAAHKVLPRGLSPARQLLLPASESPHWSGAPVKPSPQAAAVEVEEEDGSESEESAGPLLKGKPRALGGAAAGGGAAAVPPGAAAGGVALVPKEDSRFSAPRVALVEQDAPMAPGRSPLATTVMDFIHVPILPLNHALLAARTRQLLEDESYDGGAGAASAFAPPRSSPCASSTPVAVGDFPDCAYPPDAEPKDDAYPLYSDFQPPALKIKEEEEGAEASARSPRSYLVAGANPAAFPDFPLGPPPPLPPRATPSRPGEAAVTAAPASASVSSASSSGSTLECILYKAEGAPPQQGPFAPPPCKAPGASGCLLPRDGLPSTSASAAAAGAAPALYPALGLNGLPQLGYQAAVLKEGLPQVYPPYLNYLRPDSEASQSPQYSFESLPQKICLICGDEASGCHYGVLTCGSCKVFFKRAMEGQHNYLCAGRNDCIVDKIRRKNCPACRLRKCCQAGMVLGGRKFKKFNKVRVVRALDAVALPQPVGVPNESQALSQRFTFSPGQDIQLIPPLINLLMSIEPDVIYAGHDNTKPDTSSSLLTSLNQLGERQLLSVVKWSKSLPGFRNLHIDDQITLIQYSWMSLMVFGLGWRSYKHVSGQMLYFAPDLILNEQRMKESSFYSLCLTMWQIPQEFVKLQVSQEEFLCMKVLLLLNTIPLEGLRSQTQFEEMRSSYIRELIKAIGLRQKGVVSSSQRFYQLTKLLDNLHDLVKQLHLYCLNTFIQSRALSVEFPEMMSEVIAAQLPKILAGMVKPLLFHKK
# PROTOCOL: TOX21_PR_BLA_Followup_Antagonist_ratio: Tox21 HEK293 Progesterone Receptor (PR) Antagonism Beta-lactamase Follow-Up Assay, Ratio (AID 2283934);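 also: PR-UAS-bla HEK293T cells stimulated with 1 nM R5020 agonist for 16 hr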
Activity calls are given as the source filed them. The calls were made as follows: active = hit-call score of the fitted dose curve at least 0.9, where 1 is the maximum; inconclusive = response in the unintended direction; inactive = score below 0.9.
The reply should be one of these categories: T = active, F = inactive

Use the examples below as a reference point.
C/C=C1/C(=O)C[C@H]2[C@@H]3CCC4=CC(=O)CC[C@]4(C)[C@H]3CC[C@]12C ... F
CC(=O)OCC(=O)[C@@]1(O)CC[C@H]2[C@@H]3CCC4=CC(=O)CC[C@]4(C)[C@H]3C(=O)C[C@@]21C ... F
CCOC(=O)C1=C(C)NC(C)=C(C(=O)OC)C1c1cccc(Cl)c1Cl (stereo not given) ... T
CN1CC[C@H](c2c(O)cc(O)c3c(=O)cc(-c4ccccc4Cl)oc23)[C@H](O)C1 ... T

With those in mind, consider the next compound.
Assay outcome for CC(=O)O[C@@H]1CC2C3CCc4cc(OC(=O)c5ccccc5)ccc4C3CCC2(C)[C@H]1OC(C)=O (stereo not given in full) : what was it? T

---

# MEASURED_TARGET: Cellular tumor antigen p53 (Homo sapiens) (UniProt P04637)
# Sequence (P04637 whole entry, looked up): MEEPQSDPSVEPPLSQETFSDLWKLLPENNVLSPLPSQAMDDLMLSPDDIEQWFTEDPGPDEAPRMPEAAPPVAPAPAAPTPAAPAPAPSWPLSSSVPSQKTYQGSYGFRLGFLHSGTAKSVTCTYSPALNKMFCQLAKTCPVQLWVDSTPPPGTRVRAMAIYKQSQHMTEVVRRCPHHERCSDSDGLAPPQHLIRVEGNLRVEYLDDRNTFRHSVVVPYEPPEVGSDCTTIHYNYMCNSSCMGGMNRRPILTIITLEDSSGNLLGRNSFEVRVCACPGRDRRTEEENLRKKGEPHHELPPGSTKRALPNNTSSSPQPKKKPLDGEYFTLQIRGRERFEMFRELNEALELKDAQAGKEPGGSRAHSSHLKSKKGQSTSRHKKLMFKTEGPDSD
# PROTOCOL: TOX21_p53_BLA_p4_ratio: Tox21 HCT-116 p53 Agonism Beta-lactamase Assay, Ratio, Phase 4 (AID 2283601)
Results filed as inconclusive are left out. Active and inactive are the calls of the source. How the source made its calls: active means hit-call score of the fitted dose curve at least 0.9, where 1 is the maximum; inconclusive means response in the unintended direction; inactive means score below 0.9.
RESULT_TYPE: outcome

CC(C)C[C@H](NC(=O)[C@@H](Cc1c[nH]c2ccccc12)NC(=O)[C@H](Cc1ccc(O)cc1)NC(=O)[C@H](CO)NC(=O)[C@H](Cc1c[nH]c2ccccc12)NC(=O)[C@H](Cc1cnc[nH]1)NC(=O)[C@@H]1CCC(=O)N1)C(=O)N[C@@H](CCCN=C(N)N)C(=O)N1CCC[C@@H]1C(=O)NCC(N)=O ... inactive
C#CCN[C@@H]1CCc2ccccc21 ... inactive
CCN1CCN(C(=O)N[C@@H](C(=O)N[C@@H]2C(=O)N3C(C(=O)O)=C(CSc4nnnn4C)CS[C@H]23)c2ccc(O)cc2)C(=O)C1=O ... inactive

---

# MEASURED_TARGET: Cellular tumor antigen p53 (Homo sapiens) (UniProt P04637)
# PROTOCOL: TOX21_p53_BLA_p3_ratio: Tox21 HCT-116 p53 Agonism Beta-lactamase Assay, Ratio, Phase 3 (AID 2283596)
# Description: TOX21_p53_BLA_p3 is a cell-based, single-readout assay that uses HCT116, a human intestinal cell line, […] in a 1536-well plate.TOX21_p53_BLA_p3_ratio is an assay readout measuring reporter gene via receptor activity and designed using inducible reporter (beta lactamase induction) detected with GAL4 b-lactamase reporter gene. […] This assay endpoint, TOX21_p53_BLA_p3_ratio, was analyzed in the positive analysis fitting direction relative to DMSO as the negative control and baseline of activity. […]
Results filed as inconclusive are left out. Active and inactive are the calls of the source. How the source made its calls: active means hit-call score of the fitted dose curve at least 0.9, where 1 is the maximum; inconclusive means response in the unintended direction; inactive means score below 0.9.
The reply should be one of these categories: y = active, n = inactive

Use the examples below as a reference point.
COc1ccc(/C=C/C(=O)O)cc1 ... n
N#CSc1ccc(N)c([N+](=O)[O-])c1 ... n
FC1(F)C(F)(F)C(F)(F)C2(F)C(F)(F)C(F)(F)C(F)(F)C(F)(F)C2(F)C1(F)F (stereo not drawn) ... n
C[C@H]1O[C@H](O[C@H]2[C@H](O)[C@@H](O)[C@@H](O[C@H]3[C@H](O)[C@@H](O)[C@H](O)O[C@@H]3CO)O[C@@H]2CO)[C@H](O)[C@@H](O)[C@@H]1N[C@H]1C=C(CO)[C@@H](O)[C@H](O)[C@H]1O ... n

Assay outcome for C[Se]CCC(N)C(=O)O (stereo not drawn) : what was it? n

Assay outcome for CC1(C)CO[C@@H](CC(=O)O)CN1 : what was it? n

Assay outcome for CN1CCCN(C(c2ccccc2)c2ccc(Cl)cc2)CC1 (stereo not drawn) : what was it? n

Assay outcome for CN1[C@@H]2CC[C@H]1CC(OC(=O)c1c[nH]c3ccccc13)C2 (stereo partly drawn) : what was it? n

Assay outcome for CN1C[C@H]2c3ccccc3Oc3ccc(Cl)cc3[C@@H]2C1 : what was it? y

Assay outcome for C[N+](C)(C)CC(O)CCl (stereo not drawn) : what was it? n

Assay outcome for Nc1nc(N)c(-c2ccccc2)s1 : what was it? n

Assay outcome for CC(C)c1ncc([N+](=O)[O-])n1C : what was it? n

Assay outcome for O=C(CCN1CCN(CCO)CC1)N1c2ccccc2Sc2ccc(C(F)(F)F)cc21 : what was it? n

Assay outcome for NC[C@H]1O[C@H](O[C@H]2[C@H](O[C@@H]3O[C@H](CO)[C@@H](O)[C@H]3O)C(O)[C@H](N)C[C@@H]2N)[C@H](N)[C@@H](O)[C@@H]1O (stereo partly drawn) : what was it? n

Assay outcome for NS(=O)(=O)c1cc2c(cc1Cl)NC(C(Cl)Cl)NS2(=O)=O (stereo not drawn) : what was it? n

Assay outcome for COc1cc2c(cc1OC)C(C(C(=O)N(CCc1ccc(OC)c(OC)c1OC)CCc1ccc(OC)c(OC)c1OC)c1ccccc1)=NCC2 (stereo not drawn) : what was it? n

Assay outcome for NC(=O)OCC(O)COc1ccc(Cl)cc1 (stereo not drawn) : what was it? n

Assay outcome for CC(C)(C)C(=O)OCC(=O)[C@H]1CC[C@H]2[C@@H]3CCC4=CC(=O)CC[C@]4(C)[C@H]3CC[C@]12C : what was it? n

Assay outcome for CN1CCN(CCC(=O)N2c3ccccc3Sc3ccc(C(F)(F)F)cc32)CC1 : what was it? n
